# Assay Target: T1, peptide tag (SEQ ID NO:16), unlabeled synthetic peptide (C-terminal amide)
# T1 construct: Short peptide tag derived from the leucine zipper of the GCN4 transcription factor; also called protein tag peptide; unlabeled peptide
# T1 peptide: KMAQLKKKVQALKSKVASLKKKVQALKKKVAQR
# Test Protocol: equilibrium fluorescence titration
Ends that are not written are not given here.
Metric Name: Kd
For clarity, give the value followed by its unit.

Request: Consider the binder YGRKKRRNRRRPCEMAQLEKEVQALESEVASLEKEVQALEKEVAQR-NH2 (not fully specified, Peptide derived from the GCN4 leucine zipper; also called labeled peptide; TMRPep) and give its measured Kd.
Result: 5 nM
